Where these numbers come from: paper PMC4468427

Consider the following compounds and their measured CC50 at 48 h readings.
# assayName: MTS cytotoxicity assay on Vero cells
# studyConditions: African green monkey
measurementKind: CC50 at 48 h

compound | measurementKind | result
COc1cc(C2Oc3cc([C@H]4Oc5cc(O)cc(O)c5C(=O)[C@@H]4O)ccc3OC2CO)ccc1O (stereo partly drawn) | CC50 at 48 h | > 200 µg/mL
O=c1c(O)c(-c2ccc(O)cc2)oc2cc(O)cc(O)c12 | CC50 at 48 h | > 1000 µg/mL
O=c1c(O)c(-c2ccc(O)c(O)c2)oc2cc(O)cc(O)c12 | CC50 at 48 h | > 1000 µg/mL

----------
# assayName: MTS cytotoxicity assay on BHK-21 cells
# studyConditions: hamster
measurementKind: CC50 at 2 days (µg/mL)

smilesStructure | relationalOperator | numericResult
O=c1c(O)c(-c2ccc(O)cc2)oc2cc(O)cc(O)c12 | = | 537
O=c1c(O)c(-c2ccc(O)c(O)c2)oc2cc(O)cc(O)c12 | > | 800
